Value source: patent US20200079833A1

Molecular target: T1, glucose-dependent insulinotropic peptide (gastric inhibitory polypeptide) receptor (GIPR), primary cAMP assay … (human, UniProt P48546 22-466)
T1 sequence (looked up): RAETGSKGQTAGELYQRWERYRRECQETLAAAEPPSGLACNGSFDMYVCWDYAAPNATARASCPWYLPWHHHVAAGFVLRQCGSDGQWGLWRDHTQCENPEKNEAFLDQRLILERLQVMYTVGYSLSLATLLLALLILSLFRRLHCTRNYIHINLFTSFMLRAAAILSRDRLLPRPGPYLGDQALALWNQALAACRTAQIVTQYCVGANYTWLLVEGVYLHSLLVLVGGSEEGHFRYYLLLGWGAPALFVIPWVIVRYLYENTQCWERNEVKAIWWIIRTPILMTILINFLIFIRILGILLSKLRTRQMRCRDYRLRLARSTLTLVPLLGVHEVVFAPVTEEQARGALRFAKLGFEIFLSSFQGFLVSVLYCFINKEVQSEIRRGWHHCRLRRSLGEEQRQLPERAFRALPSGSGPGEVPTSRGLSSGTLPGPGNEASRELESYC
Test: cell-based or functional assay
Starred links: 1 amine or outer side, 2 acyl side, 3 side chain; linkers in the order of their positions; H or OH if unused. Non-standard residues stand in square brackets, D forms with d. Groups on a side chain read outwards from the residue. Primed or numbered codes have the meaning given here. No end group written: not given here. *: point of attachment. γGlu = O=C(O)[C@H](CCC(=O)[*:2])N[*:1]; αMeF = C[C@](N)(Cc1ccccc1)C(=O)O; αMeK = C[C@](N)(CCCCN)C(=O)O; Lauroyl = CCCCCCCCCCCC(=O)*; αMeS = C[C@](N)(CO)C(=O)O; PEG2′ = not defined here; Aib = CC(C)(N)C(=O)O
assay_metric: cAMP Primary assay EC50, n1

H[Aib]EGS[αMeF]TSDK([PEG2′-PEG2′-γGlu-Lauroyl])SSYLEGEK([PEG2′-PEG2′-γGlu-Lauroyl])A[αMeK]EFIK([PEG2′-PEG2′-γGlu-Lauroyl])FVVEGG-NH2 [SEQ ID NO: 441]	19.5 nM
H[Aib]EGS[αMeF]TSDV[αMeS]SK([PEG2′-PEG2′-γGlu-Lauroyl])LEGEK([PEG2′-PEG2′-γGlu-Lauroyl])A[αMeK]EFIAFK([PEG2′-PEG2′-γGlu-Lauroyl])VEGG-NH2 [SEQ ID NO: 481]	19.8 nM
H[Aib]EGS[αMeF]TSDV[αMeS]SK([PEG2′-PEG2′-γGlu-Lauroyl])LEGEAA[αMeK]K([PEG2′-PEG2′-γGlu-Lauroyl])FIAK([PEG2′-PEG2′-γGlu-Lauroyl])VVEGG-NH2 [SEQ ID NO: 466]	20.2 nM

Turning now to a further record.
Query block: Would you mind telling me what cAMP Primary assay EC50, n1 value was observed for H[Aib]EGS[αMeF]TSDV[αMeS]SK([PEG2′-PEG2′-γGlu-Lauroyl])LEK([PEG2′-PEG2′-γGlu-Lauroyl])EAA[αMeK]EFIAK([PEG2′-PEG2′-γGlu-Lauroyl])VVEGG-NH2 [SEQ ID NO: 463] ?
Result block: 20 nM
